- Test system: L1210
- Protocol details: The compound was tested for cytotoxic activity using standard L1210 cell based cytotoxicity assay
- Format: functional
- Experimental setup: Mus musculus
IC50 reference
Lab book: enter the figure in µM, no units written.

Here is how some compounds turned out for IC50.
Supply reported IC50 belonging to this compound: CN(C)CCCC(=O)Nc1csc(C(=O)Nc2ccc3c(c2)cc2c(=O)n4c(cc5cc(NC(=O)c6csc(NC(=O)CCCN(C)C)n6)ccc54)c(=O)n23)n1 4

Supply reported IC50 belonging to this compound: CN(C)CCCC(=O)Nc1ccc2c(c1)cc1c(=O)n3c(cc4cc(NC(=O)CCCN(C)C)ccc43)c(=O)n12 0.034

Supply reported IC50 belonging to this compound: CN(C)CCCC(=O)Nc1ccc(C(=O)Nc2ccc3c(c2)cc2c(=O)n4c(cc5cc(NC(=O)c6ccc(NC(=O)CCCN(C)C)cc6)ccc54)c(=O)n23)cc1 7

Supply reported IC50 belonging to this compound: CC(C)(C)OC(=O)Nc1ccc2c(c1)cc1c(=O)n3c(cc4cc(NC(=O)OC(C)(C)C)ccc43)c(=O)n12 29

Turning to the following compound.
Supply reported IC50 belonging to this compound: Nc1ccc2c(c1)cc1c(=O)n3c(cc4cc(N)ccc43)c(=O)n12 30
